Hello, the source for this data is the Human Domainome abundance scans (Beltran et al. 2025), in case you need it.

B1: POU domain, class 5, transcription factor 1, residues 134 to 212; numbered along this chain, Q01860 (parent)
chain: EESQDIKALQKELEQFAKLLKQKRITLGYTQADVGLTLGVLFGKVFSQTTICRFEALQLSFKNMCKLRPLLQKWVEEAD

# Variants of: B1
# testSummary: abundance fitness (aPCA) (normalised: wild type 0, dead -1); higher = more abundant; growth selection in yeast, the domain comes from the species named
# conditionDescription: Homo sapiens
Returns 1 if the recorded abundance fitness is greater than or equal to -0.3, and -1 otherwise.

sequenceRecord: EESQDIKALQKELQQFAKLLKQKRITLGYTQADVGLTLGVLFGKVFSQTTICRFEALQLSFKNMCKLRPLLQKWVEEAD [E14Q]
labelClass: 1
--
sequenceRecord: EESQDIKALQKELEQFAKLLKQKRITLGYTQADVGLTLGVLFGKVFSQTTICRFEALQLSFKNMKKLRPLLQKWVEEAD [C65K]
labelClass: 1
--
sequenceRecord: EESNDIKALQKELEQFAKLLKQKRITLGYTQADVGLTLGVLFGKVFSQTTICRFEALQLSFKNMCKLRPLLQKWVEEAD [Q4N]
labelClass: 1
--
sequenceRecord: EESQDIKALQKELEQFAKLLKQKRITLGYTQADVGLTLGVLFGKVFSQTTICRFEALQLSFKNMCKLRPLVQKWVEEAD [L71V]
labelClass: -1
--
sequenceRecord: EESQDIKALQKELEQFAKLLKQKRITLGYTQADVCLTLGVLFGKVFSQTTICRFEALQLSFKNMCKLRPLLQKWVEEAD [G35C]
labelClass: -1
--
sequenceRecord: EESQDWKALQKELEQFAKLLKQKRITLGYTQADVGLTLGVLFGKVFSQTTICRFEALQLSFKNMCKLRPLLQKWVEEAD [I6W]
labelClass: -1
--
sequenceRecord: EESQDIKALQKELEQFAKLLKQKRITLGYTQAFVGLTLGVLFGKVFSQTTICRFEALQLSFKNMCKLRPLLQKWVEEAD [D33F]
labelClass: -1
--
sequenceRecord: EESQDIKALQKELEQFAKLLKQKRITLGGTQADVGLTLGVLFGKVFSQTTICRFEALQLSFKNMCKLRPLLQKWVEEAD [Y29G]
labelClass: -1
--
sequenceRecord: EESQDIKALQKELHQFAKLLKQKRITLGYTQADVGLTLGVLFGKVFSQTTICRFEALQLSFKNMCKLRPLLQKWVEEAD [E14H]
labelClass: 1
--
sequenceRecord: EESQDIKALQKELEQFAKLLKQKRITLGYTQADVGLTLGVLFGKVFSQTTICRFEALQLSFKNMCKLRPLLTKWVEEAD [Q72T]
labelClass: -1
--
sequenceRecord: EESQDIKALQKELEQFAKLLKQKRITLGYTQADVGLTLGVLFGKVFSQTTICRFENLQLSFKNMCKLRPLLQKWVEEAD [A56N]
labelClass: 1
--
sequenceRecord: EESQDIKALQKELEQFAKLLKQKRITLGYTQADVGLTLGVLFGKVFSQTTICRFEALQLSFKNMCKLRPLLQIWVEEAD [K73I]
labelClass: -1
--
sequenceRecord: EESQDIKALQKWLEQFAKLLKQKRITLGYTQADVGLTLGVLFGKVFSQTTICRFEALQLSFKNMCKLRPLLQKWVEEAD [E12W]
labelClass: 1
--
sequenceRecord: EESQDIKALHKELEQFAKLLKQKRITLGYTQADVGLTLGVLFGKVFSQTTICRFEALQLSFKNMCKLRPLLQKWVEEAD [Q10H]
labelClass: -1
--
sequenceRecord: EESQDIKALQKELEQFAKLLKQKRITLGYTQADVGLTLGVLFGKVFSQTTICRFEALQLSFKNMCKLRGLLQKWVEEAD [P69G]
labelClass: 1
--
sequenceRecord: EESQDIKVLQKELEQFAKLLKQKRITLGYTQADVGLTLGVLFGKVFSQTTICRFEALQLSFKNMCKLRPLLQKWVEEAD [A8V]
labelClass: 1
--
sequenceRecord: EESDDIKALQKELEQFAKLLKQKRITLGYTQADVGLTLGVLFGKVFSQTTICRFEALQLSFKNMCKLRPLLQKWVEEAD [Q4D]
labelClass: 1
--
sequenceRecord: EESQDIKALQKELEQFAKLLKQKRITLGYTQADVGLTLGVLFGKVFSQTTICRFEALQSSFKNMCKLRPLLQKWVEEAD [L59S]
labelClass: -1
--
sequenceRecord: EESQDIKALQKELEQFAKLLKQKRITLGYTQALVGLTLGVLFGKVFSQTTICRFEALQLSFKNMCKLRPLLQKWVEEAD [D33L]
labelClass: -1
--
sequenceRecord: EESQDIKALQKELEQFAKLLKQKRITLGYTQADVGLGLGVLFGKVFSQTTICRFEALQLSFKNMCKLRPLLQKWVEEAD [T37G]
labelClass: 1
--
sequenceRecord: EESQDIKALQKELEQFAKLLKQKRITLGYTQADVGLTLGVLFGKVFSQTTICRFEANQLSFKNMCKLRPLLQKWVEEAD [L57N]
labelClass: 1
--
sequenceRecord: EESQDIKALQKELKQFAKLLKQKRITLGYTQADVGLTLGVLFGKVFSQTTICRFEALQLSFKNMCKLRPLLQKWVEEAD [E14K]
labelClass: 1
--
sequenceRecord: EESQDIKALLKELEQFAKLLKQKRITLGYTQADVGLTLGVLFGKVFSQTTICRFEALQLSFKNMCKLRPLLQKWVEEAD [Q10L]
labelClass: 1
--
sequenceRecord: EESQDIKALQKELEQFAKLLKMKRITLGYTQADVGLTLGVLFGKVFSQTTICRFEALQLSFKNMCKLRPLLQKWVEEAD [Q22M]
labelClass: 1
--
sequenceRecord: EESQDIKALQKELEQFAKLLKQKRITLGYTQADVGLTLGVLFGKVFSQTTICRFEALQLSFKNMCALRPLLQKWVEEAD [K66A]
labelClass: 1
--
sequenceRecord: EESQSIKALQKELEQFAKLLKQKRITLGYTQADVGLTLGVLFGKVFSQTTICRFEALQLSFKNMCKLRPLLQKWVEEAD [D5S]
labelClass: 1
--
sequenceRecord: EESQDSKALQKELEQFAKLLKQKRITLGYTQADVGLTLGVLFGKVFSQTTICRFEALQLSFKNMCKLRPLLQKWVEEAD [I6S]
labelClass: 1
--
sequenceRecord: EESQDIKALQKELEQFAKLLKQKRITLGYTQADVGLTLGVLFGKVFSQTTICRFEALQLSFKNMCKLRPLLYKWVEEAD [Q72Y]
labelClass: -1
--
sequenceRecord: EESQDIKALMKELEQFAKLLKQKRITLGYTQADVGLTLGVLFGKVFSQTTICRFEALQLSFKNMCKLRPLLQKWVEEAD [Q10M]
labelClass: 1
--
sequenceRecord: EESQDIKALQKELEQFAKLLKQKRITLGYTQADVGLTLGVLFGKVFSQTTICRFEALQLSFKNMCKLRPLLRKWVEEAD [Q72R]
labelClass: -1
--
sequenceRecord: KESQDIKALQKELEQFAKLLKQKRITLGYTQADVGLTLGVLFGKVFSQTTICRFEALQLSFKNMCKLRPLLQKWVEEAD [E1K]
labelClass: 1
--
sequenceRecord: EESQDIKALQKELEQFAKLLKQKRIGLGYTQADVGLTLGVLFGKVFSQTTICRFEALQLSFKNMCKLRPLLQKWVEEAD [T26G]
labelClass: 1
--
sequenceRecord: EESQDIKALQKELEQFAKLLKQKRVTLGYTQADVGLTLGVLFGKVFSQTTICRFEALQLSFKNMCKLRPLLQKWVEEAD [I25V]
labelClass: 1
--
sequenceRecord: EESQDIKALQKELEQFAKLLKQKRITLGYTQADVGLTLGVLFGKVFSQTTICRFEALQLSFKNMCKLRPLLQKWVEGAD [E77G]
labelClass: 1
--
sequenceRecord: EESQDIKALQKELEQFAKLLKQKRITLGYTQADVGLTLGVLFGKPFSQTTICRFEALQLSFKNMCKLRPLLQKWVEEAD [V45P]
labelClass: 1
--
sequenceRecord: EESQDIKALQKELEQFAKLLKQKRITLGYTQADVGLTLGVLFGKVFSQTTICRFEALQVSFKNMCKLRPLLQKWVEEAD [L59V]
labelClass: -1
--
sequenceRecord: EESQDIKALQKELEQFAKLLKQKRITLGYTQADVGLTLGVLFGKVFSQTTICRFEALQLSFKNRCKLRPLLQKWVEEAD [M64R]
labelClass: -1
--
sequenceRecord: EESQDIKALQKELEQFAKLLKQKRITLGYTQAWVGLTLGVLFGKVFSQTTICRFEALQLSFKNMCKLRPLLQKWVEEAD [D33W]
labelClass: -1
--
sequenceRecord: EESQDIKALQKELEQFAKLLKQKRITWGYTQADVGLTLGVLFGKVFSQTTICRFEALQLSFKNMCKLRPLLQKWVEEAD [L27W]
labelClass: 1
--
sequenceRecord: EESQDIKALQKELEQFAKLLKQKRITLGYTQADVGLTLGVLFGKVFSQTTICRFEALGLSFKNMCKLRPLLQKWVEEAD [Q58G]
labelClass: -1
--
sequenceRecord: EESQDIKALQKELEQFAKLLKQKRITLGYTQADVGLTKGVLFGKVFSQTTICRFEALQLSFKNMCKLRPLLQKWVEEAD [L38K]
labelClass: -1
--
sequenceRecord: EESQDIKALQIELEQFAKLLKQKRITLGYTQADVGLTLGVLFGKVFSQTTICRFEALQLSFKNMCKLRPLLQKWVEEAD [K11I]
labelClass: 1
--
sequenceRecord: EESQDIKALQKELEQFAKLLKQKRITLGYTQADVGLTEGVLFGKVFSQTTICRFEALQLSFKNMCKLRPLLQKWVEEAD [L38E]
labelClass: -1
--
sequenceRecord: EESQDIKALQKELEQFAKLLKQKRITLNYTQADVGLTLGVLFGKVFSQTTICRFEALQLSFKNMCKLRPLLQKWVEEAD [G28N]
labelClass: -1
--
sequenceRecord: EESQDIKALQKVLEQFAKLLKQKRITLGYTQADVGLTLGVLFGKVFSQTTICRFEALQLSFKNMCKLRPLLQKWVEEAD [E12V]
labelClass: 1
